Where do the numbers come from? From ChEMBL document CHEMBL4308828.

Measured log10 of Intrinsic clearance of individual entries
assay: Intrinsic clearance in Wistar rat liver microsomes at 2.5 uM; type: ADME, Microsome
// stored as log10 of Intrinsic clearance expressed in mL/min/g

Answered cases to consult:
INSERT INTO results (chemical_string, measured) VALUES
  ('Brc1ccc(Cn2nnc3c(Br)cccc32)cc1', 0.34),
  ('FC(F)(F)c1ccc(-c2ccc(Cn3nnc4ccccc43)cc2)c(Cl)c1', -0.30),
  ('Clc1cccc2c1nnn2CC1CC1', -0.30);

Prompt: Quick check: log10 of Intrinsic clearance of Fc1cc(Br)c2nnn(CC3CC3)c2c1 ?
Completion: -0.30

Prompt: Could you share which log10 of Intrinsic clearance value was measured for Brc1cccc2c1nnn2Cc1ccccc1 ?
Completion: 0.30

Prompt: # lookup: log10 of Intrinsic clearance of Fc1ccccc1Cn1nnc2c(Br)cccc21
Completion: 0.26

Prompt: Name the recorded log10 of Intrinsic clearance for Fc1cc(C(F)(F)F)ccc1-c1ccc(Cn2nnc3ccccc32)cc1 .
Completion: -0.40

Prompt: Recorded log10 of Intrinsic clearance for Fc1ccc(Cn2nnc3c(Br)cccc32)c(Cl)c1 , please?
Completion: 0.54

Prompt: For the molecule Brc1cccc2c1nnn2CC1CCC1 , what log10 of Intrinsic clearance is on record?
Completion: 1.08

Prompt: For the molecule Clc1ccc(-c2ccc(Cn3nnc4ccccc43)cc2)c(Cl)c1 , what log10 of Intrinsic clearance is on record?
Completion: 0.15

###

test: Intrinsic clearance in Wistar rat liver microsomes at 2.5 uM; type: ADME, Microsome
Listed compounds paired with reported Intrinsic clearance
Respond with the bare value in mL/min/g.

Solved entries (count: 2):
INSERT INTO assay_data (chemical_string, reported_metric, reading_unit, measured) VALUES
  ('CC(C)Cn1nnc2c(Br)cccc21', 'Intrinsic clearance', 'mL/min/g', 4),
  ('Fc1ccc(Cn2nnc3c(Br)cccc32)cc1', 'Intrinsic clearance', 'mL/min/g', 1);

Let's switch to this compound now.
Prompt: Dear colleague, I am looking for the recorded Intrinsic clearance of the following compound: CCCCn1nnc2c(Br)cccc21
Completion: 4.4
